- Assay target: ATP-sensitive inward rectifier potassium channel 1 (Homo sapiens)
- Assay explanation: retested modulators of human Kir1.1 channel – cell-based, thallium flux, duplicate, resupplied hits, confirmation (AID 1917)
- Measurement setup: ROMK thallium flux, fluorescence ratio; at 10 µM
The campaign covered roughly 3,000 compounds. About 1,600 (53%) were called active. Inconclusive results (about 10%) are left out.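 Rule for the calls: active = Flux at 10 µM at least 3 SD below or above vehicle control mean in one or both replicates; inconclusive = no clear call, values can overlap the other calls; inactive = the rest.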 So high a share suggests a set chosen from earlier hits. Not all results are given here.
Classes used: yes (active), no (inactive)

>>> answer_label("COc1ccc(C(CCNCc2ccccc2F)c2ccc(F)cc2)cc1 (stereo not drawn)")
"yes"
>>> answer_label("CCOc1ccc2nc(N3CCCN(C(=O)Nc4ccccc4C)CC3)c(C#N)cc2c1")
"yes"
>>> answer_label("Cc1ccc(CNC(=O)CC2Sc3ccccc3NC2=O)cc1 (stereo not drawn)")
"no"
>>> answer_label("Cc1ccc(S(=O)(=O)C2(S(=O)(=O)c3ccc(C)cc3)CCCC2)cc1")
"no"
>>> answer_label("CC(NCc1ccccc1OC1CCCC1)c1ccccc1 (stereo not drawn)")
"yes"
>>> answer_label("CC(C)(c1ccccc1)c1ccc(OCCN)cc1")
"yes"
>>> answer_label("CNc1nccc(-c2ccc(Cl)cc2)c1C#N")
"no"
>>> answer_label("COc1ccccc1-n1c(C)nc2cc(C(=O)NCc3ccc4c(c3)OCO4)ccc21")
"no"
